Would you mind telling me the reported Kd of each entry?
Target: HLA-A*03:01
Experiment: IEDB peptide-MHC binding, purified MHC/competitive/radioactivity; filed as Kd, often an IC50 or EC50 that approximates it; bounds were set here for any values at or beyond the usual limits of such assays
Settings: source organism: Mammarenavirus whitewaterense

Recorded Kd (sequence KCFANNQDER ): ≥ 70000 nM

Noted for KWMLISSELK : its Kd reads 19.9 nM

====

Target: HLA-B*54:01
Assay: IEDB peptide-MHC binding, purified MHC/competitive/radioactivity; filed as Kd, often an IC50 or EC50 that approximates it; bounds were set here for any values at or beyond the usual limits of such assays
Conditions: source organism: Mammarenavirus whitewaterense
property-label: Kd

Sure, the documented Kd for APTGGVVKI is ≥ 78.1 µM

====

Target: HLA-B*27:03
Assay: IEDB peptide-MHC binding, purified MHC/competitive/fluorescence; filed as Kd, often an IC50 or EC50 that approximates it; bounds were set here for any values at or beyond the usual limits of such assays
Conditions: source organism: Orthohantavirus andesense
pKd: −log10 of the molar value.
property-label: pKd

For this sequence ( QIQAGNFHW ), measured pKd is ≤ 4.70

====

Target: HLA-B*51:01
Assay: IEDB peptide-MHC binding, purified MHC/competitive/fluorescence; filed as Kd, often an IC50 or EC50 that approximates it; bounds were set here for any values at or beyond the usual limits of such assays
Conditions: source organism: Brucella suis 1330
property-label: Kd

The recorded Kd for entry TEWPQLKVA equals ≥ 20 µM

====

Biological target: HLA-B*48:01
Assay: IEDB peptide-MHC binding, purified MHC/competitive/fluorescence; filed as Kd, often an IC50 or EC50 that approximates it; bounds were set here for any values at or beyond the usual limits of such assays
Settings: source organism: Toxoplasma gondii RH
property-label: Kd (nM)
Please respond with the number in nM and leave the unit unwritten.

The value of Kd measured for the sequence WQLSGVVPL turned out to be 29.9

====

Target: HLA-B*46:01
Assay: IEDB peptide-MHC binding, purified MHC/direct/fluorescence; filed as Kd, often an IC50 or EC50 that approximates it; bounds were set here for any values at or beyond the usual limits of such assays
Details: source organism: Yellow fever virus
pKd: −log10 of the molar value.
property-label: pKd

Item: KMLDPRQGL | pKd: ≤ 4.70

====

Biological target: HLA-A*24:03
Assay: IEDB peptide-MHC binding, purified MHC/direct/fluorescence; filed as Kd, often an IC50 or EC50 that approximates it; bounds were set here for any values at or beyond the usual limits of such assays
Settings: source organism: Francisella tularensis subsp. tularensis FSC033
property-label: Kd

Tested system HLA-A*24:03; Kd recorded for NTIEELSGY was ≥ 20 µM

====

Biological target: HLA-A*23:01
Test: IEDB peptide-MHC binding, purified MHC/competitive/radioactivity; filed as Kd, often an IC50 or EC50 that approximates it; bounds were set here for any values at or beyond the usual limits of such assays
Conditions: source organism: Mammarenavirus juninense
property-label: pKd
FYI, pKd means -log10 of a concentration in mol per litre.

// pKd lookup, sequence = LVIASLPLF , result: 7.72

====

Target: HLA-B*57:01
Assay: IEDB peptide-MHC binding, purified MHC/direct/fluorescence; filed as Kd, often an IC50 or EC50 that approximates it; bounds were set here for any values at or beyond the usual limits of such assays
Settings: source organism: Coxiella burnetii
property-label: pKd
Note: pKd values are expressed as the negative base-10 logarithm of concentration in M.

// pKd value for ITLYEYDHF : 6.89
